# target: T1, LIN7B, Q9HAP6
# T1 sequence (Q9HAP6 88-185, limits assumed, looked up): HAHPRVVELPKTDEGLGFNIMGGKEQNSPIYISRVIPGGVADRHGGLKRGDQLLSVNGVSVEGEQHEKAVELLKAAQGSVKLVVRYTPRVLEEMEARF
# test: holdup assay
# Set-up: key: below the threshold = too weak to quantify, mostly under pKd 3.1 to 4
# measurement conditions: plain residues with an end cap or a label only (N-terminal biotin on a linker: ado-ado)

{"binder": "KSRVAFFEEL [NF2, P35240;P35240-1]", "pKd": "below the threshold"}
{"binder": "QRPYRRGSEI [KCNJ18, B7U540]", "pKd": 3.62}
{"binder": "NTANRRTTPV [CACNG2, Q9Y698]", "pKd": "below the threshold"}
{"binder": "RDPPAEWTRV [PTPN18, Q99952]", "pKd": "below the threshold"}
